Where these numbers come from: paper PMC3601785

assay_summary: aqueous solubility
Assay type: physicochemical
test_settings: aqueous solution
outcome_measure: solubility

Reported solubility ( CCC[C@@H]1O[C@@H](Oc2c(-c3ccc(O)cc3)oc3cc(O)cc(O)c3c2=O)[C@H](O)[C@H](OC(C)=O)[C@H]1OC(C)=O [compound 7] ) = ≤ 25 µM

* * *

assay_summary: pharmacokinetic analysis, single i.v. or i.p. dose
Assay type: in vivo, male CD-1 mice
test_settings: male, CD-1, mouse, plasma, other: intravenous (i.v.) or intraperitoneal (i.p.)
outcome_measure: half-life

Reported half-life ( `CC(=O)O[C@@H]1[C@@H](OC(C)=O)[C@@H](O)[C@H](Oc2c(-c3ccc(O)cc3)oc3cc(O)cc(O)c3c2=O)O[C@H]1C` ) = < 30 min
